Reported TGI values follow for various compounds
Test system: IGROV1 ovarian
Assay: NCI tumour cell line growth inhibition, 48 h

Known TGI results, listed for orientation:
COMPOUND: NNC(=O)C1CCC(=O)N1S(=O)(=O)c1ccccc1 (configuration not stated)
TGI: > 100 µM

COMPOUND: COc1c(O)c2c3c(cc(C)cc3c1C(C)C)OC2
TGI: > 100 µM

COMPOUND: CSC1=C(N)C(=O)c2[nH]cc(CO)c2C1=N
TGI: 0.521 µM

Ask: Give TGI for O=C1NC(=O)C(C(CC(=O)c2ccc([N+](=O)[O-])cc2)c2ccccc2)C(=O)N1 (configuration not stated)
Reply: > 100 µM

Ask: Give TGI for CC(CN(C)C)/C(=N\Nc1ccccc1)c1ccccc1 (configuration not stated)
Reply: > 100 µM

Ask: Give TGI for Cc1ccc(S(=O)(=O)n2c3ccc(Br)cc3c3nc4ccccc4nc32)cc1
Reply: 57.8 µM

====

System: HOP-92 NSCLC
Test: NCI tumour cell line growth inhibition, 48 h; in the data active = GI50 below about 0.43 µM; inactive = the rest
Valid outcomes are listed here; reply with one: active, inactive

Please review the entries below; each comes with its answer.
STRUCTURE_NOTATION: Cc1cc([N+](=O)[O-])c(NS(=O)(=O)c2cccc(C(=O)O)c2)cc1-c1cccnc1
CLASS: inactive
--
STRUCTURE_NOTATION: NCCCC[C@@H]1NC(=O)[C@H]2CCCN2C(=O)[C@H](Cc2ccccc2)CNC(=O)[C@H](Cc2ccccc2)NC1=O
CLASS: inactive

Ask: Please state the recorded outcome for this compound: COc1ccc(C/C(C)=C(/c2ccc(OCCN3CCCCC3)cc2)c2ccc(OC(=O)NCc3ccccc3)cc2)cc1
Reply: active

====

Tested on: UO-31 renal
Assay: NCI tumour cell line growth inhibition, 48 h; in the data active = GI50 below about 0.43 µM; inactive = the rest
Valid outcomes are listed here; reply with one: t = active, f = inactive

MOLECULE: NCCCC[C@@H]1NC(=O)[C@H]2CCCN2C(=O)[C@H](Cc2ccccc2)CNC(=O)[C@H](Cc2ccccc2)NC1=O
SYSTEM_UNDER_TEST: UO-31 renal
CLASS: f
--
MOLECULE: Cc1cc2c(cc1Cl)SC1=NN(C)C(C)N1S2(=O)=O (stereo not given)
SYSTEM_UNDER_TEST: UO-31 renal
CLASS: f
--
MOLECULE: Cc1ccccc1OCC(O)CN1CCN(c2ccc(Cl)cc2)CC1 (stereo not given)
SYSTEM_UNDER_TEST: UO-31 renal
CLASS: f
--
MOLECULE: CSC1=C(N)C(=O)c2[nH]cc(CO)c2C1=N
SYSTEM_UNDER_TEST: UO-31 renal
CLASS: t
--
MOLECULE: Cc1cc(NCCCN(C)C)c2ccc3c(ccc4c(NCCCN(C)C)cc(C)nc43)c2n1
SYSTEM_UNDER_TEST: UO-31 renal
CLASS: t

Ask: Please state the recorded outcome for this molecule: CCCCCCC[CH2][Sn]([CH2]CCCCCCC)([O]c1cccc2cccnc12)[O]c1cccc2cccnc12
Reply: f

Ask: Please state the recorded outcome for this molecule: O=C(/C=C/Sc1cc(C(F)(F)F)cc(C(F)(F)F)c1)c1ccc(Cl)cc1
Reply: f

Ask: Please state the recorded outcome for this molecule: COc1ccc(CCN2CC=Cn3c2nc2ccccc2c3=O)cc1
Reply: t

Ask: Please state the recorded outcome for this molecule: CC1(C)C2CCC13C(=O)C1OC3(C2)C2C(=O)c3ccccc3C(=O)C12 (stereo not given)
Reply: f

Ask: Please state the recorded outcome for this molecule: COc1cc2nc(N3CCCC3)nc(NCc3ccccc3)c2cc1OC
Reply: f
